Please go through the items and note down their inhibition at 10 µM.
Biological target: CYP3A4 (Homo sapiens, UniProt P08684)
Sequence (P08684 whole entry): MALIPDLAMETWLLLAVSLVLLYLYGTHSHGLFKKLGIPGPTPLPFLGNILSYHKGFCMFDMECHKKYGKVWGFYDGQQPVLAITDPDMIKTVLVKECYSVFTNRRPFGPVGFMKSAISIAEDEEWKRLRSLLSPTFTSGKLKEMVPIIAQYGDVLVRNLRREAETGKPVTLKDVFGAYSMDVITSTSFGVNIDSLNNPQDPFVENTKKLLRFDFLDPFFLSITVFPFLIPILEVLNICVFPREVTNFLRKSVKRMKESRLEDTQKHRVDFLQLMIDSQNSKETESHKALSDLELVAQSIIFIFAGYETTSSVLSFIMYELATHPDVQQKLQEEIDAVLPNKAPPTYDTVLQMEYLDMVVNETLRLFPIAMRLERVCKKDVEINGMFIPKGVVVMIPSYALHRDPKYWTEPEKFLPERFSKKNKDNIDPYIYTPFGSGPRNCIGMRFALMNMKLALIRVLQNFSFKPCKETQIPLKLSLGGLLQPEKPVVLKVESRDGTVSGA
Assay: Cytochrome P450 (CYP450) Inhibition Assay, CYP3A4 (Vivid fluorescence, BOMCC substrate)
Conditions: human, P450 Baculosomes (recombinant CYP3A4), probe BOMCC (Vivid substrate)

Below are worked cases with known answers.
# compound, quantity_measured, measured_result
measured = [
    ("COCCNC(=O)c1cccc2c1C1(COc3cc4c(cc31)OCCO4)C(=O)N2C (centres unmarked)", "inhibition at 10 µM", "< 50%"),
    ("O=C1N(Cc2ccc(C(F)(F)F)nc2)c2ccccc2C12COc1cc3c(cc12)OCCO3 (centres unmarked)", "inhibition at 10 µM", "> 50%"),
    ("CCOC(=O)CN1C(=O)C2(COc3cc4c(cc32)OCCO4)c2ccccc21 (centres unmarked)", "inhibition at 10 µM", "< 50%"),
    ("CN(C)c1ccc(-c2cccc3c2C2(COc4cc5c(cc42)OCO5)C(=O)N3)cn1 (centres unmarked)", "inhibition at 10 µM", "> 50%"),
]

The recorded inhibition at 10 µM for entry CC(C)c1nc(CN2C(=O)C3(COc4cc5c(cc43)OCO5)c3c(Cl)cccc32)cs1 (centres unmarked) equals > 50%

====

Would you mind telling me the reported melting point of each entry?
Counter-ions that a name gives are not always drawn.

# compound, measured_result
data = [
    ("Nc1cc(-c2ccc(CN3C(=O)C4(COc5cc6c(cc54)OCCO6)c4ccccc43)cc2)[nH]n1 (centres unmarked) (as salt: hydrochloride)", "198 to 201 °C"),
    ("Cc1cc2c(cc1C)C1(CO2)C(=O)N(Cc2ccccn2)c2ccccc21 (centres unmarked)", "165 to 168 °C"),
    ("CN1C(=O)C2(COc3cc4c(cc32)OCCO4)c2c(OCc3ccccc3)cccc21 (centres unmarked)", "198 to 200 °C"),
]

Please give melting point for each item listed below.
1. COc1ncc(CN2C(=O)C3(COc4cc5c(cc43)OCCO5)c3ccccc32)cn1 (centres unmarked)
2. O=C1N(CC2CCOCC2)c2ccccc2C12COc1cc3c(cc12)OCCO3 (centres unmarked)
3. O=C1Nc2cccc(Cl)c2C12COc1cc3c(cc12)CCO3 (centres unmarked)
4. CN1C(=O)C2(COc3cc4c(cc32)OCCO4)c2c(NC(=O)NC3CCCC3)cccc21 (centres unmarked)
5. O=C(Nc1cccc(Cl)c1)c1ccccc1CN1C(=O)C2(COc3cc4c(cc32)CCO4)c2ccccc21 (centres unmarked)
6. O=C1Nc2ccccc2C12COc1cc3c(cc12)OCCCO3 (centres unmarked)

Result:
1: 248 to 249 °C; 2: 129 to 131 °C; 3: > 200 °C; 4: 133 to 135 °C; 5: > 230 °C; 6: 235 to 236 °C

Batch request: melting point per item, same order as input.
1. Cc1nnc(-c2ccc(CN3C(=O)C4(COc5cc6c(cc54)CCO6)c4ccccc43)cc2)[nH]1 (centres unmarked)
2. O=C1N(Cc2ccc(N3CCOCC3)nc2)c2ccccc2C12COc1cc3c(cc12)OCCO3 (centres unmarked)
3. Cl.O=C1N(CC2CCNCC2)c2ccccc2C12COc1cc(F)c(F)cc12 (centres unmarked)
4. CCCCCCNC(=O)Nc1cccc2c1C1(COc3cc4c(cc31)OCCO4)C(=O)N2C (centres unmarked)
5. CCC(CC)CNC(=O)c1ccc(CN2C(=O)C3(COc4cc5c(cc43)CCO5)c3ccccc32)cc1 (centres unmarked)
6. CN1C(=O)C2(COc3cc4c(cc32)OCCO4)c2c(Oc3ccc(C(F)(F)F)cc3)cccc21 (centres unmarked)

Result:
["169 to 180 °C", "117 to 119 °C", "> 200 °C", "154 to 155 °C", "211 to 213 °C", "198 to 201 °C"]

Go through the list and state melting point for each entry.
1. O=C1Nc2c(Cl)cccc2C12COc1cc3c(cc12)CCO3 (centres unmarked)
2. CCCCCNC(=O)c1cccc2c1C1(COc3cc4c(cc31)OCCO4)C(=O)N2C (centres unmarked)

Result:
1. > 250 °C
2. 191 to 193 °C
